test: chemical genetic growth profiling, strain panel (AID 1159580);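 further: tested at 20 µM; growth read once vehicle control cultures reached saturation at 30 °C; lower values mean less growth of the strain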; conditions: S. cerevisiae deletion strains, growth OD, locus YMR223W, strain ubp8
In all, about 5,500 compounds went through this assay and about 2,000 (36%) were called active. Inconclusive results (about 18%) are left out. No stated cut-off is given here; in the data, active means normalized growth mostly below about 0.91 (no sharp cut-off); inconclusive means no clear call, values can overlap the other calls; inactive means mostly above about 0.92. This is one part of the list.
Labels: active, inactive

MOLECULE	LABEL_CLASS
c1ccc2c(c1)cc1ccc3cccc4ccc2c1c34	inactive
CC(=O)OCC1(C)CCC2(C)CCC3(C)C4=CCc5c(cc(OC(C)=O)c(OC(C)=O)c5C)C4(C)CCC3(C)C2C1 (configuration not stated)	inactive
O=[N+]([O-])c1ccc(O)c([N+](=O)[O-])c1	active
COC(=O)[C@]1(C)CC[C@]2(C)CC[C@]3(C)C4=CCc5c(cc(O)c(O)c5C)[C@]4(C)CC[C@@]3(C)C2C1 (some centres not stated)	inactive
Nc1nc2ncc(C(=O)O)nc2c(=O)[nH]1	inactive
O=[N+]([O-])c1cc(O)c(O)c([N+](=O)[O-])c1	inactive
CCCc1occc(=O)c1/C=C/O	inactive
Nc1ncn([C@@H]2O[C@H](CO)[C@@H](O)[C@H]2O)c(=O)n1	inactive
c1ccc2c3c([nH]c2c1)CNCC3	inactive
O=[N+]([O-])c1cc([As](=O)(O)O)ccc1O	active
Cc1c(O)c(O)cc2c1CC=C1[C@@]2(C)CC[C@@]2(C)C3C[C@](C)(C(=O)O)CC[C@]3(C)CC[C@]12C (some centres not stated)	inactive
O[N+]1=CC=CCC1=S.On1ccccc1=S.[Zn]	active

Source listed as PubChem BioAssay AID1159580.
